Source listed as BindingDB's records for doi:10.1021/acs.jmedchem.6b01885.

target: Survival motor neuron protein (Homo sapiens); assay: Stabilization of human SMN protein expressed in HEK293 cells expressing SMN2 promoter after 24 hrs by luciferase reporter gene assay
Sequence (Q16637 whole entry): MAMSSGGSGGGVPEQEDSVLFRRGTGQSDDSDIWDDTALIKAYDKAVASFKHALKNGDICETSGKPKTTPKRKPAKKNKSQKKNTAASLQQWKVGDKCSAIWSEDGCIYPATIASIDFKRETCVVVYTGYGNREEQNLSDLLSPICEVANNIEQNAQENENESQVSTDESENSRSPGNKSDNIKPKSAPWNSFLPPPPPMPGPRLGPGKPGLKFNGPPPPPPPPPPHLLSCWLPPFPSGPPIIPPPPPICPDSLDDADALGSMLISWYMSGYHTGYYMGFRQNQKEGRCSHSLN
I'd appreciate it if you marked entries Yes when EC50 is lower than 900 nM and No when it is not.

# given_smiles, subject_of_test, qualitative_label
records = [
    ("COc1cccc(NC(=O)c2cc(C(C)C)on2)c1", "Survival motor neuron protein (Homo sapiens)", "No"),
    ("CC(C)c1cc(C(=O)Nc2nccs2)no1", "Survival motor neuron protein (Homo sapiens)", "Yes"),
    ("CC(C)c1nc(NC(=O)c2ccc(F)c(Cl)c2)cs1", "Survival motor neuron protein (Homo sapiens)", "No"),
    ("O=C(Nc1ccc(F)c(Cl)c1)c1cc(Cc2ccccc2)on1", "Survival motor neuron protein (Homo sapiens)", "No"),
    ("CCc1cc(C(=O)Nc2ccc(F)c(Cl)c2)no1", "Survival motor neuron protein (Homo sapiens)", "No"),
    ("CC(C)c1cc(C(=O)Nc2ccc(F)cc2)no1", "Survival motor neuron protein (Homo sapiens)", "No"),
    ("CC(C)c1cc(C(=O)Nc2cccc(Cl)c2)no1", "Survival motor neuron protein (Homo sapiens)", "Yes"),
    ("CC(C)c1cc(C(=O)Nc2nc3ccccc3s2)no1", "Survival motor neuron protein (Homo sapiens)", "Yes"),
    ("CC(C)c1cc(C(=O)Nc2ccc(Cl)cc2)no1", "Survival motor neuron protein (Homo sapiens)", "No"),
    ("CC(C)Cc1cc(C(=O)Nc2ccc(F)c(Cl)c2)no1", "Survival motor neuron protein (Homo sapiens)", "No"),
    ("CC(C)c1cc(C(=O)Nc2cccnc2)no1", "Survival motor neuron protein (Homo sapiens)", "No"),
    ("CC(C)c1cc(C(=O)Nc2nc3ccccc3n2C)no1", "Survival motor neuron protein (Homo sapiens)", "No"),
    ("Cc1cccc(NC(=O)c2cc(C(C)C)on2)c1", "Survival motor neuron protein (Homo sapiens)", "No"),
    ("CC(C)c1cc(C(=O)Nc2ccccc2)no1", "Survival motor neuron protein (Homo sapiens)", "Yes"),
    ("CC(C)(C)c1cc(C(=O)Nc2ccc(F)c(Cl)c2)no1", "Survival motor neuron protein (Homo sapiens)", "No"),
    ("Cc1ccccc1NC(=O)c1cc(C(C)C)on1", "Survival motor neuron protein (Homo sapiens)", "No"),
    ("CC(C)c1cc(C(=O)Nc2ccccc2Cl)no1", "Survival motor neuron protein (Homo sapiens)", "No"),
    ("CC(C)c1cc(C(=O)N2CCc3ccccc32)no1", "Survival motor neuron protein (Homo sapiens)", "Yes"),
    ("O=C(Nc1ncc(C2CCC2)s1)c1ccc(F)c(Cl)c1", "Survival motor neuron protein (Homo sapiens)", "Yes"),
    ("CC(C)c1cc(C(=O)Nc2cccc(F)c2)no1", "Survival motor neuron protein (Homo sapiens)", "Yes"),
    ("CC(C)c1cc(C(=S)Nc2ccc(F)c(Cl)c2)no1", "Survival motor neuron protein (Homo sapiens)", "No"),
    ("Cc1ccc(NC(=O)c2cc(C(C)C)on2)cc1", "Survival motor neuron protein (Homo sapiens)", "No"),
    ("COc1ccccc1NC(=O)c1cc(C(C)C)on1", "Survival motor neuron protein (Homo sapiens)", "No"),
    ("CC(C)c1cc(NC(=O)c2ccc(F)c(Cl)c2)no1", "Survival motor neuron protein (Homo sapiens)", "No"),
    ("CC(C)c1cc(C(=O)Nc2ccccc2F)no1", "Survival motor neuron protein (Homo sapiens)", "Yes"),
    ("CC(C)c1cc(CNc2ccc(F)c(Cl)c2)no1", "Survival motor neuron protein (Homo sapiens)", "No"),
    ("CC(C)c1cc(NC(=O)c2ccc(F)c(Cl)c2)on1", "Survival motor neuron protein (Homo sapiens)", "No"),
    ("CC(C)c1cc(C(=O)Nc2ccccn2)no1", "Survival motor neuron protein (Homo sapiens)", "Yes"),
    ("Cc1c(C(=O)Nc2ccc(F)c(Cl)c2)noc1C(C)C", "Survival motor neuron protein (Homo sapiens)", "Yes"),
    ("CC(C)c1cc(C(=O)Nc2nc3ccccc3[nH]2)no1", "Survival motor neuron protein (Homo sapiens)", "Yes"),
]
